Reference for the values: patent US20190367619A1

Property: Kd; scope: individual binders
# ASSAYED TARGET: T1, human galectin-10-His (human)
# T1 construct: The last M of the tag may be Met1 of galectin-10; also called humanGal10-His; hGal10
# T1 chain: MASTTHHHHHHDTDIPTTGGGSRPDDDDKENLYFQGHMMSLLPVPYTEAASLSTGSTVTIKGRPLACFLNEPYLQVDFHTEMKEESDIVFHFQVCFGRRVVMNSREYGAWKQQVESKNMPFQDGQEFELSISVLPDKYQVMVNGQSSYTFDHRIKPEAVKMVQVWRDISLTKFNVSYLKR
# TEST: SPR Biacore T3000, mouse IgG1 captured

[[record]]
binder = "1D11 mouse IgG1 (antibody, V domains shown, Llama VH and VL on mouse IgG1 heavy chain constant domains (CH1-CH2-CH3) and mouse lambda light chain constant domain; also called 1D011; 1D11 mIgG1) VH: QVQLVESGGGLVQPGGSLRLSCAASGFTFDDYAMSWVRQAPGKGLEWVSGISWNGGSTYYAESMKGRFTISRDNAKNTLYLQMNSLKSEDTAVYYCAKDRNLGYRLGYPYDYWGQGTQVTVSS VL: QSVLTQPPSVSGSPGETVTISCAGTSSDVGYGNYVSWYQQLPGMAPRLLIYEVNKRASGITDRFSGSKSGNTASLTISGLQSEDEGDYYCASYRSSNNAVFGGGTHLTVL"
parameter_measured = "Kd"
endpoint_result = "0.7 nM"


Exam item: Can you look up the measured Kd of 11F02 mouse IgG1 (antibody, V domains shown, VH and VL cloned in frame with mouse IgG1 constant domains; also called 11F02 mIgG1) VH: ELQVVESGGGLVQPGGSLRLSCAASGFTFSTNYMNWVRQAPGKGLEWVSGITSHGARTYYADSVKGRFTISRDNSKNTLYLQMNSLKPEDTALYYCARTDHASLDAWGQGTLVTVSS VL: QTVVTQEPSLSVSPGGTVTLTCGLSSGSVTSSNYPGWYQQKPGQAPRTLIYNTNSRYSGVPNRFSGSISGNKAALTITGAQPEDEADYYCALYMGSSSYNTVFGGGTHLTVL for me?
Marked response: 2.2 nM

Exam item: Can you look up the measured Kd of 10A06 mouse IgG1 (antibody, V domains shown, VH and VL cloned in frame with mouse IgG1 constant domains; also called 10A06 mIgG1) VH: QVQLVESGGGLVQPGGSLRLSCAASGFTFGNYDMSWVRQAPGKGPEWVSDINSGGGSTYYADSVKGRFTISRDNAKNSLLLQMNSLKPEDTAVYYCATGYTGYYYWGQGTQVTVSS VL: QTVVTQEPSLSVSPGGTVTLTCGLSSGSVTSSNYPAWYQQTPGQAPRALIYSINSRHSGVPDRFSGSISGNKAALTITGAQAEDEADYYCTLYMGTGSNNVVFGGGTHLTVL for me?
Marked response: 0.9 nM
